pKd values for the molecules below.
- experimentalTarget: CA XII (Homo sapiens)
- Construct: made in house
- Sequence (O43570 30-289 limits assumed): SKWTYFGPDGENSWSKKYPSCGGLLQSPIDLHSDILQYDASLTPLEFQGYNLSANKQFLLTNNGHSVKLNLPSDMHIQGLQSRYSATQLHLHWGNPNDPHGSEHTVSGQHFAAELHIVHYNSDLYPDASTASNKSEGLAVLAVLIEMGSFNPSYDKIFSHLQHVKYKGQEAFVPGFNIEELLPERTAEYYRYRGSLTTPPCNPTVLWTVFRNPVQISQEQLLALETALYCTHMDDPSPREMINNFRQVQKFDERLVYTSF
- measurementNotes: Fluorescent thermal shift assay (FTSA), CA XII
- Format: binding
- studyConditions: FTSA, pH 7.0, 37 °C; read-out: Compound Dissociation Constants Kd for CA XII
pKd: −log10 of the molar value.
measuredMetric: pKd

structureString	censoringQualifier	testResult
CCSC(=NS(=O)(=O)c1ccc(NCCC(=O)O)cc1)SCC	<	3.70
NS(=O)(=O)c1ccc(N2CCC(=O)NC2=O)cc1	=	5.25
NS(=O)(=O)c1ccc(NCCC(=O)NN=C(c2ccccc2)c2ccccc2)cc1	=	4.30
NC(=S)NNC(=O)CCNc1ccc(S(N)(=O)=O)cc1	=	4.48
CN(C)c1ccc(/C=N/NC(=O)CCNc2ccc(S(N)(=O)=O)cc2)cc1	=	4.48
CN(C)/N=N/c1ccc(S(N)(=O)=O)cc1	=	5.57
NS(=O)(=O)c1ccc(NCCc2n[nH]c(=S)o2)cc1	=	5.23
NS(=O)(=O)c1ccc(NCCC(=O)NNC(=O)Nc2ccccc2)cc1	=	5.73
NS(=O)(=O)c1ccc(/N=N/N2CCCCC2)cc1	=	6.11

====

- experimentalTarget: CA VI (Homo sapiens)
- Construct: made in house
- Sequence (P23280 18-308): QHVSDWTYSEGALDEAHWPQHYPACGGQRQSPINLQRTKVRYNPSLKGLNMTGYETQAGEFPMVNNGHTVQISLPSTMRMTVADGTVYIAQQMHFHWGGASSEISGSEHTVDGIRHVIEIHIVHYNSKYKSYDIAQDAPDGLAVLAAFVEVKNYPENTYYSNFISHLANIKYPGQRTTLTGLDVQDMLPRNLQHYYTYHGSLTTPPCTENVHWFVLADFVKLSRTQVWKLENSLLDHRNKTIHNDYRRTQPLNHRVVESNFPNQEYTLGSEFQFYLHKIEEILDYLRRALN
- measurementNotes: Fluorescent thermal shift assay (FTSA), CA VI
- Assay type: binding
- studyConditions: FTSA, pH 7.0, 37 °C; read-out: Compound Dissociation Constants Kd for CA VI
Checkbox rule: Kd lower than 10 µM = fulfilled; Kd not lower than 10 µM = not fulfilled.

compound	labelClass
NS(=O)(=O)c1ccc(NCCc2n[nH]c(=S)o2)cc1 [Compound 24]	not fulfilled
CC(C)=NNC(=O)CCNc1ccc(S(N)(=O)=O)cc1 [Compound 11]	not fulfilled
CC(=NNC(=O)CCNc1ccc(S(N)(=O)=O)cc1)c1ccccc1 [Compound 12]	not fulfilled
NC(=S)NNC(=O)CCNc1ccc(S(N)(=O)=O)cc1 [Compound 9]	not fulfilled
CCN(CC)/N=N/c1ccc(S(N)(=O)=O)cc1 [Compound 27]	not fulfilled
NS(=O)(=O)c1ccc(NCCC(=O)NNC(=S)Nc2ccccc2)cc1 [Compound 21]	fulfilled
NS(=O)(=O)c1ccc(N2CCC(=O)NC2=O)cc1 [Compound 5]	not fulfilled
NS(=O)(=O)c1ccc(NCCC(=O)O)cc1 [Compound 3]	not fulfilled
NS(=O)(=O)c1ccc(NCCC(=O)NN=Cc2ccc(Cl)cc2)cc1 [Compound 15]	fulfilled

====

Listed below: Kd values for each entry.
- experimentalTarget: CA XIII (Homo sapiens)
- Construct: made in house
- Sequence (Q8N1Q1 whole entry): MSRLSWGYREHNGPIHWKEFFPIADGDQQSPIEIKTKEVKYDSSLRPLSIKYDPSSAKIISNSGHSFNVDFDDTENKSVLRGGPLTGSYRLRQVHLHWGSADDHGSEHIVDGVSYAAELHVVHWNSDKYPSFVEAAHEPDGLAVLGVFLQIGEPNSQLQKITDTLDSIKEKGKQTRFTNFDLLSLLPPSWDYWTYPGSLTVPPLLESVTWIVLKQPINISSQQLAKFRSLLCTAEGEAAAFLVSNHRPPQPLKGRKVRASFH
- measurementNotes: Fluorescent thermal shift assay (FTSA), CA XIII
- Type: binding
- studyConditions: FTSA, pH 7.0, 37 °C; read-out: Compound Dissociation Constants Kd for CA XIII

compound	Kd
CC(C)=NNC(=O)CCNc1ccc(S(N)(=O)=O)cc1 [Compound 11]	50 µM
NS(=O)(=O)c1ccc(N2CCC(=O)NC2=S)cc1 [Compound 6]	2.86 µM
NS(=O)(=O)c1ccc(NCCc2n[nH]c(=S)o2)cc1 [Compound 24]	26.3 µM
CCSc1nnc(CCNc2ccc(S(N)(=O)=O)cc2)o1 [Compound 25]	3.33 µM
NS(=O)(=O)c1ccc(N2CCC(=O)NC2=O)cc1 [Compound 5]	8.33 µM

====

- experimentalTarget: CA VI (Homo sapiens)
- Construct: made in house
- measurementNotes: Fluorescent thermal shift assay (FTSA), CA VI
- Assay type: binding
- studyConditions: FTSA, pH 7.0, 37 °C; read-out: Compound Dissociation Constants Kd for CA VI
Some compounds, each annotated with its measured Kd.
measuredMetric: Kd

structureString	testResult
NS(=O)(=O)c1ccc(NCCc2n[nH]c(=S)n2-c2ccccc2)cc1	11.1 µM
CCSc1nnc(CCNc2ccc(S(N)(=O)=O)cc2)o1	28.6 µM
NNC(=O)CCNc1ccc(S(N)(=O)=O)cc1	62.5 µM
COC(=O)CCNc1ccc(S(N)(=O)=O)cc1	71.4 µM
Cc1cc(C)n(C(=O)CCNc2ccc(S(N)(=O)=O)cc2)n1	27 µM

====

- experimentalTarget: CA I (Homo sapiens, UniProt P00915)
- Construct: made in house
- Sequence (P00915 whole entry): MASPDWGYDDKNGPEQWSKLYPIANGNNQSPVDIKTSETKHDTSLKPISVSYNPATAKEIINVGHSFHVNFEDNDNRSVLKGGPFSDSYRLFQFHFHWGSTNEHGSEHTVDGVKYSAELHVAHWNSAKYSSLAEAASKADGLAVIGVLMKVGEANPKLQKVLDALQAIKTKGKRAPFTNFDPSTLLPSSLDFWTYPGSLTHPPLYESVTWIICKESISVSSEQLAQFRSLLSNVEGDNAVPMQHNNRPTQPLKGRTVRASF
- measurementNotes: Fluorescent thermal shift assay (FTSA), CA I
- Assay type: binding
- studyConditions: FTSA, pH 7.0, 37 °C; read-out: Compound Dissociation Constants Kd for CA I
pKd: −log10 of the molar value.
measuredMetric: pKd

structureString	testResult
NS(=O)(=O)c1ccc(NCCC(=O)NN=Cc2ccc(Cl)cc2)cc1	4.90
NS(=O)(=O)c1ccc(NCCC(=O)N/N=C/c2ccc(Br)cc2)cc1	4.90
NS(=O)(=O)c1ccc(NCCC(=O)NN=Cc2ccc([N+](=O)[O-])cc2)cc1	4.70
Cc1cc(C)n(C(=O)CCNc2ccc(S(N)(=O)=O)cc2)n1	5.78
NS(=O)(=O)c1ccc(NCCC(=O)O)cc1	4.40

====

- experimentalTarget: CA XIII (Homo sapiens)
- Construct: made in house
- measurementNotes: Fluorescent thermal shift assay (FTSA), CA XIII
- Assay type: binding
- studyConditions: FTSA, pH 7.0, 37 °C; read-out: Compound Dissociation Constants Kd for CA XIII

structureString	readoutUnit	Kd
NS(=O)(=O)c1ccc(NCCC(=O)N/N=C/c2ccc(Br)cc2)cc1	µM	7.14
NS(=O)(=O)c1ccc(NCCC(=O)O)cc1	µM	33.3
NS(=O)(=O)c1ccc(/N=N/SCCO)cc1	µM	1.4
NS(=O)(=O)c1ccc(NCCC(=O)NNC(=S)Nc2ccccc2)cc1	µM	9.09
CCN(CC)/N=N/c1ccc(S(N)(=O)=O)cc1	µM	0.1
NS(=O)(=O)c1ccc(NCCC(=O)NNC(=O)Nc2ccccc2)cc1	µM	18.5

====

- experimentalTarget: CA I (Homo sapiens, UniProt P00915)
- Construct: made in house
- measurementNotes: Fluorescent thermal shift assay (FTSA), CA I
- Assay type: binding
- studyConditions: FTSA, pH 7.0, 37 °C; read-out: Compound Dissociation Constants Kd for CA I
pKd: −log10 of the molar value.

structureString	censoringQualifier	pKd
NS(=O)(=O)c1ccc(N2CCC(=O)NC2=O)cc1	=	5.41
CC(=NNC(=O)CCNc1ccc(S(N)(=O)=O)cc1)c1ccccc1	=	4.81
NS(=O)(=O)c1ccc(/N=N/N2CCOCC2)cc1	=	7.54
NS(=O)(=O)c1ccc(/N=N/N2CCCC2)cc1	=	7.48
NNC(=O)CCNc1ccc(S(N)(=O)=O)cc1	=	4.25
CCSC(=NS(=O)(=O)c1ccc(NCCC(=O)O)cc1)SCC	<	3.70
CCN(CC)/N=N/c1ccc(S(N)(=O)=O)cc1	=	7.88
NS(=O)(=O)c1ccc(NCCC(=O)NNC(=S)Nc2ccccc2)cc1	=	5.04
NS(=O)(=O)c1ccc(N2CCC(=O)NC2=S)cc1	=	5.95
NS(=O)(=O)c1ccc(NCCc2n[nH]c(=S)n2-c2ccccc2)cc1	=	5.00

====

- experimentalTarget: CA II (Homo sapiens, UniProt P00918)
- Construct: made in house
- measurementNotes: Fluorescent thermal shift assay (FTSA), CA II
- Format: binding
- studyConditions: pH 7.0, 37 °C, read-out: Compound Dissociation Constants Kd for CA II
pKd: −log10 of the molar value.
Threshold rule: pKd greater than or equal to 5 is T; below that, F.

structureString	experimentalTarget	labelClass
NS(=O)(=O)c1ccc(NCCc2n[nH]c(=S)o2)cc1	CA II (Homo sapiens, UniProt P00918)	T
NS(=O)(=O)c1ccc(NCCC(=O)NN=Cc2ccc(Cl)cc2)cc1	CA II (Homo sapiens, UniProt P00918)	T
CC(=NNC(=O)CCNc1ccc(S(N)(=O)=O)cc1)c1ccccc1	CA II (Homo sapiens, UniProt P00918)	T
NS(=O)(=O)c1ccc(/N=N/N2CCCCC2)cc1	CA II (Homo sapiens, UniProt P00918)	T
CCSC(=NS(=O)(=O)c1ccc(NCCC(=O)O)cc1)SCC	CA II (Homo sapiens, UniProt P00918)	F

====

- experimentalTarget: CA I (Homo sapiens, UniProt P00915)
- Construct: made in house
- measurementNotes: Fluorescent thermal shift assay (FTSA), CA I
- Type: binding
- studyConditions: FTSA, pH 7.0, 37 °C; read-out: Compound Dissociation Constants Kd for CA I

structureString	Kd
CCSc1nnc(CCNc2ccc(S(N)(=O)=O)cc2)o1	5.88 µM
NC(=S)NNC(=O)CCNc1ccc(S(N)(=O)=O)cc1	58.8 µM
Cc1ccc(C)n1NC(=O)CCNc1ccc(S(N)(=O)=O)cc1	16.7 µM
Nc1nnc(CCNc2ccc(S(N)(=O)=O)cc2)s1	170 µM
NS(=O)(=O)c1ccc(NCCc2n[nH]c(=S)o2)cc1	12.5 µM
NS(=O)(=O)c1ccc(NCCC(=O)NN=C(c2ccccc2)c2ccccc2)cc1	11.5 µM
CC(C)=NNC(=O)CCNc1ccc(S(N)(=O)=O)cc1	45.5 µM
NS(=O)(=O)c1ccc(NCCC(=O)NNC(=O)Nc2ccccc2)cc1	28.6 µM
CN(C)c1ccc(/C=N/NC(=O)CCNc2ccc(S(N)(=O)=O)cc2)cc1	37 µM

Just for reference, paper PMC6271771 is where these values come from.
